- assay: Selectivity index, ratio of IC50 for human MRC5 cells to IC50 for human A549 cells
- Assay type: toxicity
- assay_context: MRC5 cells and A549 cells, read-out: Ratio IC50
Lab note: anything with selectivity ratio at or over 7 counts as met; the rest go in not met.

Use the examples below as a reference point.
compound_smiles	classification
COc1ccc(/C=C2\SC(=O)N(CC(=O)N3CCN(C(=O)[C@]4(C)CC[C@]5(C)CC[C@]6(C)C7=CC=C8C(=CC(=O)C(O)=C8C)[C@]7(C)CC[C@@]6(C)[C@@H]5C4)CC3)C2=O)cc1	not met
CC1=C(O)C(=O)C=C2C1=CC=C1[C@@]2(C)CC[C@@]2(C)[C@@H]3C[C@](C)(C(=O)N4CCN(C(=O)CN5C(=O)S/C(=C\c6cccc(F)c6)C5=O)CC4)CC[C@]3(C)CC[C@]12C	met
CC1=C(O)C(=O)C=C2C1=CC=C1[C@@]2(C)CC[C@@]2(C)[C@@H]3C[C@](C)(C(=O)N4CCN(C(=O)CN5C(=O)S/C(=C\C6CCCC6)C5=O)CC4)CC[C@]3(C)CC[C@]12C	met

Check this molecule for selectivity ratio at or above 7: COc1cccc(/C=C2\SC(=O)N(CC(=O)N3CCN(C(=O)[C@]4(C)CC[C@]5(C)CC[C@]6(C)C7=CC=C8C(=CC(=O)C(O)=C8C)[C@]7(C)CC[C@@]6(C)[C@@H]5C4)CC3)C2=O)c1
not met

Param item: CC1=C(O)C(=O)C=C2C1=CC=C1[C@@]2(C)CC[C@@]2(C)[C@@H]3C[C@](C)(C(=O)N4CCN(C(=O)CN5C(=O)CSC5=O)CC4)CC[C@]3(C)CC[C@]12C
not met

Param item: CC1=C(O)C(=O)C=C2C1=CC=C1[C@@]2(C)CC[C@@]2(C)[C@@H]3C[C@](C)(C(=O)N4CCN(C(=O)CN5C(=O)S/C(=C\c6ccc(Cl)cc6)C5=O)CC4)CC[C@]3(C)CC[C@]12C
met

Param item: CC1=C(O)C(=O)C=C2C1=CC=C1[C@@]2(C)CC[C@@]2(C)[C@@H]3C[C@](C)(C(=O)N4CCN(C(=O)CN5C(=O)S/C(=C\C(C)C)C5=O)CC4)CC[C@]3(C)CC[C@]12C
met

Param item: CC1=C(O)C(=O)C=C2C1=CC=C1[C@@]2(C)CC[C@@]2(C)[C@@H]3C[C@](C)(C(=O)O)CC[C@]3(C)CC[C@]12C
not met

Param item: CC1=C(O)C(=O)C=C2C1=CC=C1[C@@]2(C)CC[C@@]2(C)[C@@H]3C[C@](C)(C(=O)N4CCN(C(=O)CN5C(=O)S/C(=C\c6ccc(F)cc6)C5=O)CC4)CC[C@]3(C)CC[C@]12C
met

Param item: CC1=C(O)C(=O)C=C2C1=CC=C1[C@@]2(C)CC[C@@]2(C)[C@@H]3C[C@](C)(C(=O)N4CCN(C(=O)CN5C(=O)S/C(=C\c6cccc(Cl)c6)C5=O)CC4)CC[C@]3(C)CC[C@]12C
not met

Param item: CC1=C(O)C(=O)C=C2C1=CC=C1[C@@]2(C)CC[C@@]2(C)[C@@H]3C[C@](C)(C(=O)N4CCN(C(=O)CN5C(=O)S/C(=C\c6cccs6)C5=O)CC4)CC[C@]3(C)CC[C@]12C
not met

---

- assay: Cytotoxicity against human MRC5 cells assessed as inhibition of cell growth measured after 96 hrs by MTT assay
- Type: toxicity, cell-based
readout_type: IC50 at 96 h (µM)
Could you give me the number in µM? Just the number is fine.

In the examples that follow, each entry is paired with its recorded IC50 at 96 h.
compound_smiles	IC50 at 96 h / µM
CC1=C(O)C(=O)C=C2C1=CC=C1[C@@]2(C)CC[C@@]2(C)[C@@H]3C[C@](C)(C(=O)N4CCN(C(=O)CN5C(=O)S/C(=C\c6ccc(C)cc6)C5=O)CC4)CC[C@]3(C)CC[C@]12C	2.5
CC1=C(O)C(=O)C=C2C1=CC=C1[C@@]2(C)CC[C@@]2(C)[C@@H]3C[C@](C)(C(=O)N4CCN(C(=O)CN5C(=O)CSC5=O)CC4)CC[C@]3(C)CC[C@]12C	5.7
CC1=C(O)C(=O)C=C2C1=CC=C1[C@@]2(C)CC[C@@]2(C)[C@@H]3C[C@](C)(C(=O)N4CCN(C(=O)CN5C(=O)S/C(=C\c6ccc(N(C)C)cc6)C5=O)CC4)CC[C@]3(C)CC[C@]12C	4.77
COc1ccc(/C=C2\SC(=O)N(CC(=O)N3CCN(C(=O)[C@]4(C)CC[C@]5(C)CC[C@]6(C)C7=CC=C8C(=CC(=O)C(O)=C8C)[C@]7(C)CC[C@@]6(C)[C@@H]5C4)CC3)C2=O)cc1	2.04
CC1=C(O)C(=O)C=C2C1=CC=C1[C@@]2(C)CC[C@@]2(C)[C@@H]3C[C@](C)(C(=O)N4CCN(C(=O)CN5C(=O)S/C(=C\c6cccs6)C5=O)CC4)CC[C@]3(C)CC[C@]12C	1.27

Could you share which IC50 at 96 h value was measured for CC1=C(O)C(=O)C=C2C1=CC=C1[C@@]2(C)CC[C@@]2(C)[C@@H]3C[C@](C)(C(=O)N4CCN(C(=O)CN5C(=O)S/C(=C\c6cccc(Br)c6)C5=O)CC4)CC[C@]3(C)CC[C@]12C ?
4.02

Param item: CC1=C(O)C(=O)C=C2C1=CC=C1[C@@]2(C)CC[C@@]2(C)[C@@H]3C[C@](C)(C(=O)N4CCN(C(=O)CN5C(=O)S/C(=C\C6CCCCC6)C5=O)CC4)CC[C@]3(C)CC[C@]12C
3.61

Param item: CC1=C(O)C(=O)C=C2C1=CC=C1[C@@]2(C)CC[C@@]2(C)[C@@H]3C[C@](C)(C(=O)N4CCN(C(=O)CN5C(=O)S/C(=C\c6ccccc6)C5=O)CC4)CC[C@]3(C)CC[C@]12C
2.51

Param item: CC1=C(O)C(=O)C=C2C1=CC=C1[C@@]2(C)CC[C@@]2(C)[C@@H]3C[C@](C)(C(=O)O)CC[C@]3(C)CC[C@]12C
4.4

Param item: CC1=C(O)C(=O)C=C2C1=CC=C1[C@@]2(C)CC[C@@]2(C)[C@@H]3C[C@](C)(C(=O)N4CCN(C(=O)CN5C(=O)S/C(=C\C(C)C)C5=O)CC4)CC[C@]3(C)CC[C@]12C
2.93

Param item: CC1=C(O)C(=O)C=C2C1=CC=C1[C@@]2(C)CC[C@@]2(C)[C@@H]3C[C@](C)(C(=O)N4CCN(C(=O)CN5C(=O)S/C(=C\c6ccc7c(c6)OCO7)C5=O)CC4)CC[C@]3(C)CC[C@]12C
4

Param item: CC1=C(O)C(=O)C=C2C1=CC=C1[C@@]2(C)CC[C@@]2(C)[C@@H]3C[C@](C)(C(=O)N4CCN(C(=O)CN5C(=O)S/C(=C\C6CC6)C5=O)CC4)CC[C@]3(C)CC[C@]12C
3.02

---

- Test system: A549
- assay: cells
- assay_context: Homo sapiens, A549, 96 h
- Description: Cytotoxicity against human A549 cells assessed as inhibition of cell growth measured after 96 hrs by MTT assay
Strictly below 500 nM in IC50: 1. Otherwise: -1.

Use the examples below as a reference point.
compound_smiles	classification
CC1=C(O)C(=O)C=C2C1=CC=C1[C@@]2(C)CC[C@@]2(C)[C@@H]3C[C@](C)(C(=O)N4CCN(C(=O)CN5C(=O)S/C(=C\C(C)C)C5=O)CC4)CC[C@]3(C)CC[C@]12C	1
CC1=C(O)C(=O)C=C2C1=CC=C1[C@@]2(C)CC[C@@]2(C)[C@@H]3C[C@](C)(C(=O)N4CCN(C(=O)CN5C(=O)S/C(=C\c6cccc(Br)c6)C5=O)CC4)CC[C@]3(C)CC[C@]12C	-1
CCCC/C=C1\SC(=O)N(CC(=O)N2CCN(C(=O)[C@]3(C)CC[C@]4(C)CC[C@]5(C)C6=CC=C7C(=CC(=O)C(O)=C7C)[C@]6(C)CC[C@@]5(C)[C@@H]4C3)CC2)C1=O	1
CC1=C(O)C(=O)C=C2C1=CC=C1[C@@]2(C)CC[C@@]2(C)[C@@H]3C[C@](C)(C(=O)N4CCN(C(=O)CN5C(=O)S/C(=C\c6ccc7c(c6)OCO7)C5=O)CC4)CC[C@]3(C)CC[C@]12C	1
CC1=C(O)C(=O)C=C2C1=CC=C1[C@@]2(C)CC[C@@]2(C)[C@@H]3C[C@](C)(C(=O)N4CCN(C(=O)CN5C(=O)S/C(=C\c6cccc(Cl)c6)C5=O)CC4)CC[C@]3(C)CC[C@]12C	1

Is IC50 of COc1ccc(/C=C2\SC(=O)N(CC(=O)N3CCN(C(=O)[C@]4(C)CC[C@]5(C)CC[C@]6(C)C7=CC=C8C(=CC(=O)C(O)=C8C)[C@]7(C)CC[C@@]6(C)[C@@H]5C4)CC3)C2=O)cc1 strictly below 500 nM?
1

Param item: CC1=C(O)C(=O)C=C2C1=CC=C1[C@@]2(C)CC[C@@]2(C)[C@@H]3C[C@](C)(C(=O)N4CCN(C(=O)CN5C(=O)CSC5=O)CC4)CC[C@]3(C)CC[C@]12C
-1

Param item: CC1=C(O)C(=O)C=C2C1=CC=C1[C@@]2(C)CC[C@@]2(C)[C@@H]3C[C@](C)(C(=O)N4CCN(C(=O)CN5C(=O)S/C(=C\C6CCCC6)C5=O)CC4)CC[C@]3(C)CC[C@]12C
1

Param item: CC1=C(O)C(=O)C=C2C1=CC=C1[C@@]2(C)CC[C@@]2(C)[C@@H]3C[C@](C)(C(=O)N4CCN(C(=O)CN5C(=O)S/C(=C\c6cccc(C)c6)C5=O)CC4)CC[C@]3(C)CC[C@]12C
-1
